Source of measurements: patent US20140296216A1

Test system: A431 (Human epidermal carcinoma, EGFR high expression)
assayOverview: Cell proliferation by MTT, A431
Type: cell-based
measurementContext: A-431, read-out: A431 50% inhibitory concentration (IC50), 72 h
measuredEndpoint: IC50

> print(dat)
                            molecularstring                        experimentaltarget  measuredendpoint  observedresult
1  CCC(=O)Nc1cccc(N2C(=O)N(C)Cc3cnc(Nc4ccc(N5CCN(C)CC5)cc4OC)nc32)c1  A431 (Human epidermal carcinoma, EGFR high expression)              IC50         > 30 µM
2  C=CC(=O)Nc1cccc(N2C(=O)N(C)Cc3cnc(NC)nc32)c1  A431 (Human epidermal carcinoma, EGFR high expression)              IC50        > 100 µM
3  C=CC(=O)Nc1cccc(N2C(=O)N(C)Cc3cnc(N4CCN(C)CC4)nc32)c1  A431 (Human epidermal carcinoma, EGFR high expression)              IC50        > 100 µM
4  COc1cc(N2CCN(C)CC2)ccc1Nc1ncc2c(n1)N(c1cccc(N)c1)C(=O)N(C)C2  A431 (Human epidermal carcinoma, EGFR high expression)              IC50         > 30 µM
5  C=CC(=O)Nc1cccc(N2C(=O)N(C)Cc3cnc(Nc4ccc(N5CCN(C)CC5)cc4OCC)nc32)c1  A431 (Human epidermal carcinoma, EGFR high expression)              IC50          > 5 µM

====

experimentalTarget: EGFR T790M kinase (Homo sapiens, UniProt P00533, T790M)
Sequence (P00533 25-1210 T790M): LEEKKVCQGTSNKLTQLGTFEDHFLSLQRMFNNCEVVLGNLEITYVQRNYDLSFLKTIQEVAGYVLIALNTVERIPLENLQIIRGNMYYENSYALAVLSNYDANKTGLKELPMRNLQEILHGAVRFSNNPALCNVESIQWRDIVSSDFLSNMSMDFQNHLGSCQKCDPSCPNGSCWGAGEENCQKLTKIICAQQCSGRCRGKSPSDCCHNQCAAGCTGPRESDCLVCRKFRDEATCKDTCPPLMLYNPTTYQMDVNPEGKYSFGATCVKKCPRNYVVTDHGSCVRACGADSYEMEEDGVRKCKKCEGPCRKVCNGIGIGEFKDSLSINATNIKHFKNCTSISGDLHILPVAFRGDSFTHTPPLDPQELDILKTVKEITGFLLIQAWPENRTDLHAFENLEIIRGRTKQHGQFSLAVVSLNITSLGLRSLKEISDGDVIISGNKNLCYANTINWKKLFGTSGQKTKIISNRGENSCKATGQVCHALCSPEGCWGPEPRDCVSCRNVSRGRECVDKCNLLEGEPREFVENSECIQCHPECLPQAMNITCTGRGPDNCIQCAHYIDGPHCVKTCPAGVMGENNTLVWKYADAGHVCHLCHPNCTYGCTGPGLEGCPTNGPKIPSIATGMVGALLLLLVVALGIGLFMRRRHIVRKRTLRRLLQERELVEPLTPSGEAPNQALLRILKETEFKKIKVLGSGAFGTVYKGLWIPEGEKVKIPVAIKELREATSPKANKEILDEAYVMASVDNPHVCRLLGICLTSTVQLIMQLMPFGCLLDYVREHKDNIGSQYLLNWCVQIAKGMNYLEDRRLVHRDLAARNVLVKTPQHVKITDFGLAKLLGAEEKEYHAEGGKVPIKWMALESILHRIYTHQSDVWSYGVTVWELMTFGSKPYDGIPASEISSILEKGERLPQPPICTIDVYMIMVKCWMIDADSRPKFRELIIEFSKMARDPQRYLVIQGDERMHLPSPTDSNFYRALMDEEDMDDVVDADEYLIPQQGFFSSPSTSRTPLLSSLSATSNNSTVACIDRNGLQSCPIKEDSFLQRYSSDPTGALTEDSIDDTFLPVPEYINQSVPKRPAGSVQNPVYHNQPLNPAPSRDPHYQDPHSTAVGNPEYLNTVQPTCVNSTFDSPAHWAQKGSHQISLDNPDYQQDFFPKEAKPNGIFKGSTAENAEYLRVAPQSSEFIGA
assayOverview: In vitro enzymatic activity assay (Z'-LYTE), EGFR T790M
measurementContext: Z'-LYTE FRET peptide assay; read-out: EGFRT790M kinase activity (IC50)
compounds and their reported IC50
measuredEndpoint: IC50

> print(dat)
                             molecularstring  measuredendpoint    observedresult
 1  C=CC(=O)Nc1cccc(N2C(=O)N(C)Cc3cnc(Nc4ccc(OCCOC)cc4OC)nc32)c1              IC50      10 to 100 nM
 2  C=CC(=O)Nc1cccc(N2C(=O)N(C)Cc3cnc(Nc4ccc(N5CCCCC5)cc4)nc32)c1              IC50           ≤ 10 nM
 3  C=CC(=O)Nc1cccc(N2C(=O)N(C)Cc3cnc(Nc4ccc(N5CCN(C)CC5)cc4OC)nc32)c1              IC50           ≤ 10 nM
 4  C=CC(=O)Nc1cccc(N2C(=O)N(c3ccccc3)Cc3cnc(Nc4ccc(N5CCN(C)CC5)cc4OC)nc32)c1              IC50           ≤ 10 nM
 5  C=CC(=O)Nc1cccc(N2C(=O)N(C)Cc3cnc(NC)nc32)c1              IC50        ≥ 10000 nM
 6  C=CC(=O)Nc1ccc(F)c(N2C(=O)N(Cc3ccccc3)Cc3cnc(Nc4ccc(N5CCN(C)CC5)cc4OC)nc32)c1              IC50           ≤ 10 nM
 7  C=CC(=O)Nc1cccc(N2C(=O)N(C)Cc3cnc(Nc4ccc(N5CCN(C)CC5)cc4C)nc32)c1              IC50           ≤ 10 nM
 8  C=CC(=O)Nc1cccc(N2C(=O)N(C)Cc3cnc(Nc4ccccc4)nc32)c1              IC50           ≤ 10 nM
 9  C=CC(=O)Nc1cccc(N2C(=O)N(C)Cc3cnc(Nc4ccc(N5CCC(N(C)C)CC5)cc4OC)nc32)c1              IC50           ≤ 10 nM
10  C=CC(=O)Nc1cccc(N2C(=O)N(C)Cc3cnc(N4CCN(C)CC4)nc32)c1              IC50        ≥ 10000 nM
11  C=CC(=O)Nc1cccc(N2C(=O)N(C)Cc3cnc(Nc4ccc(N5CCC(N6CCN(C)CC6)CC5)cc4OC)nc32)c1              IC50      10 to 100 nM
12  C=CS(=O)(=O)Nc1cccc(N2C(=O)N(C)Cc3cnc(Nc4ccc(N5CCN(C)CC5)cc4OC)nc32)c1              IC50      10 to 100 nM
13  COc1cc(N2CCN(C)CC2)ccc1Nc1ncc2c(n1)N(c1cccc(N)c1)C(=O)N(C)C2              IC50  1000 to 10000 nM
14  C=CC(=O)Nc1cccc(N2C(=O)N(C)Cc3cnc(Nc4ccc(N5CCC(N6CCN(C)CC6)CC5)cc4)nc32)c1              IC50           ≤ 10 nM
15  CCC(=O)Nc1cccc(N2C(=O)N(C)Cc3cnc(Nc4ccc(N5CCN(C)CC5)cc4OC)nc32)c1              IC50  1000 to 10000 nM
16  C=CC(=O)Nc1cccc(N2C(=O)N(c3cccc(C#N)c3)Cc3cnc(Nc4ccc(N5CCN(C)CC5)cc4OC)nc32)c1              IC50           ≤ 10 nM
17  C=CC(=O)Nc1cccc(N2C(=O)N(C)Cc3cnc(Nc4ccc(N5CCN(C)CC5)cc4OCC)nc32)c1              IC50      10 to 100 nM
18  C=CC(=O)Nc1cccc(N2C(=O)N(C)Cc3cnc(Nc4ccc(N5CCN(C)CC5)cc4F)nc32)c1              IC50        ≥ 10000 nM
19  C=CC(=O)Nc1cccc(N2C(=O)N(C)Cc3cnc(Nc4ccc(N5CC[C@H](N(C)C)C5)cc4OC)nc32)c1              IC50      10 to 100 nM
20  C=CC(=O)Nc1cccc(N2C(=O)N(c3cccc([N+](=O)[O-])c3)Cc3cnc(Nc4ccc(N5CCN(C)CC5)cc4OC)nc32)c1              IC50      10 to 100 nM
21  C=CC(=O)Nc1cccc(N2C(=O)N(C)Cc3cnc(Nc4ccc(N5CCOCC5)cc4)nc32)c1              IC50           ≤ 10 nM
